- Tested on: M. mycetomatis genome strain MM55
- method: CLSI M38-A2 based in vitro susceptibility screening (XTT or resazurin), growth at fixed concentration
- Format: cell-based, Madurella mycetomatis
- reported-conditions: Madurella mycetomatis, 25 uM, mean of three replicates; read-out: Percentage survival at 25um, 25 uM mean
Exercise: state measured activity at 25 µM for each of the molecules provided.
Kindly provide the numeric value in % only, without the unit symbol.

Look at this molecule and give its reported activity at 25 µM. CC(Cc1ccccc1)C(=O)Nc1ccc(Cl)cc1C(=O)O (stereo not drawn)
92.5

Any idea what its activity at 25 µM is? The molecule is CC(C)(C)c1ccc(Oc2ccc(N)cc2)cc1
74

Bench note: what activity at 25 µM did COc1ccc(NC(=O)c2cc3ccccn3n2)cc1 show?
100

# input molecule: CN1CCN(Cc2ccc(-c3cnc4[nH]cc(-c5ccc6[nH]ccc6c5)c4c3)cc2)CC1 ; wanted: its activity at 25 µM
2.87

Recorded activity at 25 µM of CCc1cc(CCC(=O)Nc2ccccc2O)c(=O)[nH]c1C , please.
91.9

Find the recorded activity at 25 µM belonging to Cc1onc(-c2ccccc2)c1-c1ccc(S(N)(=O)=O)cc1 and report it.
81.4

// lookup activity at 25 µM for C[C@H](NC(=O)C(=O)Nc1ccccc1C(C)(C)C)C(=O)N[C@@H](CC(=O)O)C(=O)COc1c(F)c(F)cc(F)c1F
43.5

Need activity at 25 µM of Nc1cc(-c2nc3ccccc3[nH]2)n[nH]c1=O , thanks.
97

Can you share its activity at 25 µM? I mean this molecule: CCCCCCCCCN1C[C@@H](O)[C@H](O)[C@@H](O)[C@@H]1CO
93.6

Recorded activity at 25 µM of O=C(NC1CCCc2c1[nH]c1ccc(Cl)cc21)c1ccccn1 (stereo not drawn) , please.
79

Find the recorded activity at 25 µM belonging to Cc1oncc1C(=O)Nc1ccc(C(F)(F)F)cc1 and report it.
85.3

# lookup: activity at 25 µM of N#Cc1cc([N+](=O)[O-])ccc1Oc1ccccc1Cl
66.8

Look at this molecule and give its reported activity at 25 µM. O=C(O)C(Cc1c[nH]c2ccccc12)N1C(=O)c2ccccc2C1=O (stereo not drawn)
80.9

# lookup: activity at 25 µM of CCOc1ccc(C(=O)NCCc2ccccc2)cc1
89.4

Which activity at 25 µM value is on record for COc1cc2c(O)c3c(c(-c4ccc5c(c4)OCO5)c2cc1OC)C(=O)OC3 ?
80.6

For the molecule Cc1ncc([N+](=O)[O-])n1CC(O)CN1CCOCC1 (stereo not drawn) , what activity at 25 µM is on record?
110

# lookup: activity at 25 µM of COc1ccc2sc3c(c2c1)NC(C)CNC3=O (stereo not drawn)
53.1

May I ask what activity at 25 µM has been recorded for Cc1c(OCC(F)(F)F)ccnc1C[S+]([O-])c1nc2ccccc2[nH]1 (stereo not drawn) ?
95.7

What value of measured activity at 25 µM is listed for C[C@H](NC(CC(=O)c1ccccc1C(F)(F)F)C(=O)O)c1ccccc1 (stereo partly drawn) ?
93.5

Give its activity at 25 µM value. Item: NC(=O)c1c(N)sc2c1CCCCC2
95.4

// activity at 25 µM lookup, key: Cc1nc2ccc(Cl)cc2c(-c2ccccc2)c1CC(=O)O
86.1

Bench note: what activity at 25 µM did COc1cc(C(C)(C)CCCC(C)C)cc(OC)c1OC show?
78.4

# query: activity at 25 µM of entry O=P(O)(O)C(CCCc1cccc(Oc2ccccc2)c1)S(=O)(=O)O (stereo not drawn)
69.1

# input molecule: O=C(c1ccc(F)cc1)N1CCN2C(=O)c3ccccc3C12c1ccccc1 (stereo not drawn) ; wanted: its activity at 25 µM
89.2

So what does the record say about activity at 25 µM for CCc1cc(CCCOc2c(C)cc(-c3noc(C(F)(F)F)n3)cc2C)on1 ?
87

Recorded activity at 25 µM of CC#C[C@]1(O)CC[C@H]2[C@@H]3CCC4=CC(=O)CCC4=C3[C@@H](c3ccc(N(C)C)cc3)C[C@@]21C , please.
87.2

Could you share which activity at 25 µM value was measured for C[C@@]1(O)[C@H](O)[C@@H](CO)O[C@H]1n1ccc2c(N)ncnc21 ?
94.2

Requested read-out: activity at 25 µM. Entry: Cc1ccn2c(C(=O)NCc3ccccc3)c(C)nc2c1
82.9

Recorded activity at 25 µM for NC(=O)c1cnccn1 , please?
83.1

Find the recorded activity at 25 µM belonging to CCc1c(OCC2CCC2)c2cc(F)ccc2[nH]c1=O and report it.
67.1

Please give the measured activity at 25 µM for this molecule: C[C@H](Cn1cnc2c(N)ncnc21)OCP(=O)(O)O
99.2

Look at this molecule and give its reported activity at 25 µM. COc1ccc(CNC(=O)C(NS(=O)(=O)c2ccc3nc(C)sc3c2)C(C)C)cc1 (stereo not drawn)
91.8

Give its activity at 25 µM value. Item: Oc1cccc(C(Nc2nccs2)c2ccc3cccnc3c2O)c1 (stereo not drawn)
1.21

For the molecule shown here, COc1ccc2nc(-c3ccccc3)cc(O)c2c1 , give the reported activity at 25 µM.
93.4

Look up activity at 25 µM: CC(C)Oc1ccc(-c2nc(-c3cccc4c3CC[C@@H]4NCCO)no2)cc1C#N
-6.9

Would you mind telling me what activity at 25 µM value was observed for COc1ccc(COc2cc3oc(=O)c4cc(C(C)O)ccc4c3cc2OC)cc1 (stereo not drawn) ?
95.8

Can you look up the measured activity at 25 µM of Clc1ccc(Cn2c(CN3CCCC3)nc3ccccc32)cc1 for me?
6.67

May I ask what activity at 25 µM has been recorded for NC(=O)c1ccc(I)c([N+](=O)[O-])c1 ?
97.6

What does the record list as activity at 25 µM for COc1ccc(-n2cnc3cc(NCc4ccco4)ccc32)cc1 ?
61.8

----------
- Tested on: M. mycetomatis genome strain MM55
- method: CLSI M38-A2 based in vitro susceptibility screening (XTT or resazurin), growth at fixed concentration
- Type: cell-based, Madurella mycetomatis
- reported-conditions: Madurella mycetomatis, 100 uM, replicate 3; read-out: Percentage survival at 100um, 100 uM A (third replicate column)
Record form. Attribute: activity at 100 µM. Fill in for each entry.
Number first, unit second.

# activity at 100 µM lookup, item Cc1ncc([N+](=O)[O-])n1CC(C)O (centres unmarked)
90.2%

Consider the molecule FC(F)(F)Oc1ccc(Nc2ccc3cccc(Cl)c3n2)cc1 and give its measured activity at 100 µM.
5.8%

Report activity at 100 µM for NNC(=O)c1ccncc1 please.
89.3%

Quick one: activity at 100 µM for O=C(/C=C\n1cnc(-c2cc(C(F)(F)F)cc(C(F)(F)F)c2)n1)NNc1ccccn1 ?
32.4%

Any idea what activity at 100 µM was measured for O=C(NN1C(=O)[C@@H]2C3C=CC([C@H]4C[C@@H]34)[C@@H]2C1=O)c1ccc(C(F)(F)F)cc1 ?
85%

// lookup activity at 100 µM for CCOc1ccc(C(=O)NCCc2ccccc2)cc1
60.4%

I have this molecule here, O=P(O)(O)C(CCCc1cccc(Oc2ccccc2)c1)S(=O)(=O)O (centres unmarked) , and I need its recorded activity at 100 µM.
62%

If you can, please state the reported activity at 100 µM value of Cc1cc(O)c2c(c1)C(=O)c1c(I)c(O)c(I)c(O)c1C2=O .
12.3%

Given the entry N=C(N)NCCCCC(=O)Nc1cc(C(F)(F)F)cc(NC(=O)c2cc(C(=O)Nc3cc(C(F)(F)F)cc(NC(=O)CCCCNC(=N)N)c3O[C@@H]3CCNC3)ncn2)c1O[C@@H]1CCNC1 , report its measured activity at 100 µM.
20.5%

Using the record for COc1cc2c(O)c3c(c(-c4ccc5c(c4)OCO5)c2cc1OC)C(=O)OC3 , report its activity at 100 µM.
153%

Form field: reported activity at 100 µM of CC1=C(/C=C/C(C)=C/C=C/C(C)=C/C(=O)Nc2ccc(O)cc2)C(C)(C)CCC1
68.7%

----------
- Test system: M. mycetomatis MM55
- method: IC50 determination, 2-fold dilution series 16 to 0.03125 μM
- Assay type: cell-based, Madurella mycetomatis
- reported-conditions: Madurella mycetomatis, MM55; replicate 1; read-out: IC50 1
Record form. Attribute: pIC50. Fill in for each entry.
Please express pIC50 as -log10 of the molar concentration.

Given the entry COC(=O)Nc1nc2c(C)cccc2[nH]1 [MMV1782387] , what pIC50 was observed with M. mycetomatis MM55?
5.54

What is its pIC50 for M. mycetomatis MM55? Entry: COc1cc(C)c2c(Oc3cccc(C(F)(F)F)c3)c(OC)cc(NC(C)CCCN)c2n1 (centres unmarked) [MMV000043, Tafenoquine, reference compound]
4.93

pIC50 of NCC(=O)Nc1ccc(-n2nc(C(F)(F)F)cc2-c2ccc3c(ccc4ccccc43)c2)cc1 [MMV1578560] on M. mycetomatis MM55?
4.76

Missing value: pIC50, M. mycetomatis MM55, entry COC(=O)Nc1nc2ccc(Sc3ccccc3)cc2[nH]1 [MMV003143, Fenbendazole] . Fill in?
5.59

Form entry - test system: M. mycetomatis MM55; read-out: pIC50; molecule: Oc1c(C(Nc2nc3ccccc3s2)c2ccc(OC(F)F)cc2)ccc2cccnc12 (centres unmarked) [MMV019724]
5.57

Can you look up pIC50 on M. mycetomatis MM55 for CCC(C)n1ncn(-c2ccc(N3CCN(c4ccc(OCC5COC(Cn6cncn6)(c6ccc(Cl)cc6Cl)O5)cc4)CC3)cc2)c1=O (centres unmarked) [MMV637528, Itraconazole, reference compound] ?
5.77
